src = the supplement of paper PMC10307832

Test system: HCC-366
Measurement Protocol: relative viability (nuclei count vs DMSO), 5 days (fraction); higher = more cells survive
Condition Label: first compound 0.02 µM
Observable: relative viability
Respond numerically, and do not add a unit to the figure.

Consider the following illustrative entries.
[
  {
    "Molecule": "CCNC(=O)c1noc(-c2cc(C(C)C)c(O)cc2O)c1-c1ccc(CN2CCOCC2)cc1 [Luminespib] + C[C@]1(O)C[C@@H](c2nc(-c3ccc4ccc(-c5ccccc5)nc4c3)c3c(N)nccn32)C1 [Linsitinib] (partner 1 µM)",
    "Observable": "relative viability",
    "Assay Value": 0.462
  },
  {
    "Molecule": "CN1CCN(CCOc2cc(OC3CCOCC3)c3c(Nc4c(Cl)ccc5c4OCO5)ncnc3c2)CC1 [Saracatinib] + CC1(C)CCC(c2ccc(Cl)cc2)=C(CN2CCN(c3ccc(C(=O)NS(=O)(=O)c4ccc(N[C@H](CCN5CCOCC5)CSc5ccccc5)c(S(=O)(=O)C(F)(F)F)c4)cc3)CC2)C1 [Navitoclax] (partner 0.5 µM)",
    "Observable": "relative viability",
    "Assay Value": 1.03
  },
  {
    "Molecule": "CCNC(=O)c1noc(-c2cc(C(C)C)c(O)cc2O)c1-c1ccc(CN2CCOCC2)cc1 [Luminespib] + Cc1cc(Nc2cc(N3CCN(C)CC3)nc(Sc3ccc(NC(=O)C4CC4)cc3)n2)n[nH]1 [Tozasertib] (partner 0.1 µM)",
    "Observable": "relative viability",
    "Assay Value": 0.108
  },
  {
    "Molecule": "CN1CCN(CCOc2cc(OC3CCOCC3)c3c(Nc4c(Cl)ccc5c4OCO5)ncnc3c2)CC1 [Saracatinib] + CC(=O)c1c(C)c2cnc(Nc3ccc(N4CCNCC4)cn3)nc2n(C2CCCC2)c1=O [Palbociclib] (partner 0.5 µM)",
    "Observable": "relative viability",
    "Assay Value": 0.382
  },
  {
    "Molecule": "CCNC(=O)c1noc(-c2cc(C(C)C)c(O)cc2O)c1-c1ccc(CN2CCOCC2)cc1 [Luminespib] + Cc1nc(NC(=O)N2CCC[C@H]2C(N)=O)sc1-c1ccnc(C(C)(C)C(F)(F)F)c1 [Alpelisib] (partner 2 µM)",
    "Observable": "relative viability",
    "Assay Value": 0.312
  }
]

What relative viability value was documented for this molecule, CCNC(=O)c1noc(-c2cc(C(C)C)c(O)cc2O)c1-c1ccc(CN2CCOCC2)cc1 [Luminespib] + O=C(CCCCCCC(=O)Nc1ccccc1)NO [Vorinostat] (partner 1 µM) ?
0.18

What relative viability value was documented for this molecule, CCNC(=O)c1noc(-c2cc(C(C)C)c(O)cc2O)c1-c1ccc(CN2CCOCC2)cc1 [Luminespib] + CS(=O)(=O)CCNCc1ccc(-c2ccc3ncnc(Nc4ccc(OCc5cccc(F)c5)c(Cl)c4)c3c2)o1 [Lapatinib] (partner 2 µM) ?
0.13

What relative viability value was documented for this molecule, CCNC(=O)c1noc(-c2cc(C(C)C)c(O)cc2O)c1-c1ccc(CN2CCOCC2)cc1 [Luminespib] + COc1cc2c(Oc3ccc(NC(=O)C4(C(=O)Nc5ccc(F)cc5)CC4)cc3F)ccnc2cc1OCCCN1CCOCC1 [Foretinib] (partner 0.25 µM) ?
0.921

What relative viability value was documented for this molecule, CCNC(=O)c1noc(-c2cc(C(C)C)c(O)cc2O)c1-c1ccc(CN2CCOCC2)cc1 [Luminespib] + CC(=O)Nc1cccc(-n2c(=O)n(C3CC3)c(=O)c3c(Nc4ccc(I)cc4F)n(C)c(=O)c(C)c32)c1 [Trametinib] (partner 0.02 µM) ?
0.349

What relative viability value was documented for this molecule, CN1CCN(CCOc2cc(OC3CCOCC3)c3c(Nc4c(Cl)ccc5c4OCO5)ncnc3c2)CC1 [Saracatinib] + Nc1ncn([C@H]2C[C@H](O)[C@@H](CO)O2)c(=O)n1 [Decitabine] (partner 2 µM) ?
0.321

What relative viability value was documented for this molecule, CN1CCN(CCOc2cc(OC3CCOCC3)c3c(Nc4c(Cl)ccc5c4OCO5)ncnc3c2)CC1 [Saracatinib] + COc1cc2c(Oc3ccc(NC(=O)C4(C(=O)Nc5ccc(F)cc5)CC4)cc3F)ccnc2cc1OCCCN1CCOCC1 [Foretinib] (partner 0.25 µM) ?
0.896

What relative viability value was documented for this molecule, CN1CCN(CCOc2cc(OC3CCOCC3)c3c(Nc4c(Cl)ccc5c4OCO5)ncnc3c2)CC1 [Saracatinib] + COc1cccc2cc(-c3nc([C@H]4CC[C@H](C(=O)O)CC4)n4ncnc(N)c34)[nH]c12 [OSI-027] (partner 0.5 µM) ?
1.02

What relative viability value was documented for this molecule, CN1CCN(CCOc2cc(OC3CCOCC3)c3c(Nc4c(Cl)ccc5c4OCO5)ncnc3c2)CC1 [Saracatinib] + Cc1nc(Nc2ncc(C(=O)Nc3c(C)cccc3Cl)s2)cc(N2CCN(CCO)CC2)n1 [Dasatinib] (partner 0.075 µM) ?
0.636

What relative viability value was documented for this molecule, CCNC(=O)c1noc(-c2cc(C(C)C)c(O)cc2O)c1-c1ccc(CN2CCOCC2)cc1 [Luminespib] + COc1cccc2cc(-c3nc([C@H]4CC[C@H](C(=O)O)CC4)n4ncnc(N)c34)[nH]c12 [OSI-027] (partner 0.5 µM) ?
0.698

What relative viability value was documented for this molecule, CCNC(=O)c1noc(-c2cc(C(C)C)c(O)cc2O)c1-c1ccc(CN2CCOCC2)cc1 [Luminespib] + CS(=O)(=O)N1CCN(Cc2cc3nc(-c4cccc5[nH]ncc45)nc(N4CCOCC4)c3s2)CC1 [Pictilisib] (partner 1 µM) ?
0.116
